Data credit: ChEMBL document CHEMBL3431459

Protein target, amino acids: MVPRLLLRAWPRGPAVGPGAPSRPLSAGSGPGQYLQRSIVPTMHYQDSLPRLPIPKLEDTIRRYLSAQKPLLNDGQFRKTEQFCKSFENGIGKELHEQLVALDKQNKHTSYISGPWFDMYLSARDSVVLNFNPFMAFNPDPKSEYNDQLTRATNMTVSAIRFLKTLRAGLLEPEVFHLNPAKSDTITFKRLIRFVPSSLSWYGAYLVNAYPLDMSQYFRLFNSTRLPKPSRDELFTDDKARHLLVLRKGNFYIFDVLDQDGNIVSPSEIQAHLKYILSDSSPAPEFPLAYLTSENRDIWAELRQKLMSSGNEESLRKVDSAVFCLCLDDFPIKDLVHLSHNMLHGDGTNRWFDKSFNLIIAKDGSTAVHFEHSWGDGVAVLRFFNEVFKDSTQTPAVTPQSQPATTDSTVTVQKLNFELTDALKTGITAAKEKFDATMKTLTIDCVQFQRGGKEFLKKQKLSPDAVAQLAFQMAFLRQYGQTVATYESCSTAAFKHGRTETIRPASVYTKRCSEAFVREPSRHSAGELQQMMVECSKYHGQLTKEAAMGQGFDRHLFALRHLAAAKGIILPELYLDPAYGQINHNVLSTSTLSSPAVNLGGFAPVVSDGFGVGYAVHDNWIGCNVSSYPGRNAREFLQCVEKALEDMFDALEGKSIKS
Would you kindly list IC50 for each of these compounds?

Working through the 7 compounds below one at a time, give IC50 for each.
1. COc1ccc(Cl)cc1CN1C(=O)COc2ccc(C(=O)Nc3nc(CC(=O)O)cs3)cc21
2. Cc1cc(-c2n[nH]c([C@H]3CCCCN3C(=O)COc3ccccc3)n2)n(C)n1
3. O=C(COc1ccccc1)N1CCCC[C@@H]1c1nnn(-c2ccccc2)n1
4. CCN(c1cc(C(=O)Nc2ncc(CC(=O)O)s2)cc2c1OCO2)S(=O)(=O)c1cc(Cl)ccc1OC
5. CCOC(=O)C1CN(S(=O)(=O)c2cc(Cl)ccc2OC)c2cc(C(=O)Nc3cccc(F)c3)ccc2O1 (configuration not stated)
6. CN(CCOc1ccc(CC2SC(=O)NC2=O)cc1)c1ccccn1 (configuration not stated)
7. COCCN(c1cc(C(=O)Nc2ccn(CC(=O)O)n2)cc2c1OCO2)S(=O)(=O)c1cc(Cl)ccc1OC

Out:
1: > 100 µM; 2: > 100 µM; 3: > 100 µM; 4: > 100 µM; 5: > 100 µM; 6: > 100 µM; 7: > 100 µM

* * *

Target: Carnitine O-palmitoyltransferase 1, liver isoform (Homo sapiens, UniProt P50416)
Sequence (P50416 whole entry): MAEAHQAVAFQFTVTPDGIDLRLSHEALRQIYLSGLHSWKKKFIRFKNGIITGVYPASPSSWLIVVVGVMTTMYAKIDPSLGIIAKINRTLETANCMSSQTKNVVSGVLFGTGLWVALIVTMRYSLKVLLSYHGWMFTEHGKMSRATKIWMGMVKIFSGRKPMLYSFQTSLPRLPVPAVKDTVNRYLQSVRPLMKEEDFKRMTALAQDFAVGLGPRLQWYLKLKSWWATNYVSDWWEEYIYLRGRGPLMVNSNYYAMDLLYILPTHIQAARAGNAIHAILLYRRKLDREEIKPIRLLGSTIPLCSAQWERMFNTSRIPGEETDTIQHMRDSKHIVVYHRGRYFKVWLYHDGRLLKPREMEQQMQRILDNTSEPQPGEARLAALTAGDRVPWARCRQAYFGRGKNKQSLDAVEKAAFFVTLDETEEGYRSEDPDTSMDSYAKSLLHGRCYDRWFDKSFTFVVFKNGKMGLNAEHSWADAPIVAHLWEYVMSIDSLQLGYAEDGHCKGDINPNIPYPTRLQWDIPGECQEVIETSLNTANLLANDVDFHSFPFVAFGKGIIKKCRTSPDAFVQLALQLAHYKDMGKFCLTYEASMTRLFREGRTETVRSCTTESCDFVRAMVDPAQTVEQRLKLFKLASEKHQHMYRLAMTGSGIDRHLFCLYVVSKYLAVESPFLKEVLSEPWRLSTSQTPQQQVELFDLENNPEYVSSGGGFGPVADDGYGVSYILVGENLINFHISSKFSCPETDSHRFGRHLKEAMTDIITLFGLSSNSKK
Experiment: SUPPLEMENTARY: Inhibition of Carnitine palmitoyltransferase 1, liver isoform
MEASURE_NAME: IC50 (nM)
Numbers only, in nM.

Please review the following examples before continuing.
{"MOLECULE": "Cc1cc(-c2nc([C@H]3CCCCN3C(=O)COc3ccccc3)no2)no1", "TARGET": "Carnitine O-palmitoyltransferase 1, liver isoform (Homo sapiens, UniProt P50416)", "IC50 (nM)": 166}
{"MOLECULE": "NC(=O)c1cn2ccc(-c3noc([C@H]4CCCCN4C(=O)COc4ccccc4)n3)cc2n1", "TARGET": "Carnitine O-palmitoyltransferase 1, liver isoform (Homo sapiens, UniProt P50416)", "IC50 (nM)": 96.4}

Working through the 6 molecules below one at a time, give IC50 for each.
1. Nc1cc(-c2n[nH]c([C@H]3CCCCN3C(=O)COc3ccccc3)n2)ccn1
2. O=C(COc1ccccc1)N1CCCC[C@@H]1c1nc(-c2cccc(-c3n[nH]c(=O)o3)c2)n[nH]1
3. O=C(COc1ccccc1)N1CCCC[C@@H]1c1noc(C2(C(F)(F)F)CC2)n1
4. COc1ccc(Cl)cc1S(=O)(=O)N1CCOc2ccc(C(=O)Nc3ccc(C(=O)O)cc3)cc21
5. COc1ccc(Cl)cc1CN1C(=O)OC(C)(C)c2ccc(C(=O)Nc3nc(CC(=O)O)cs3)cc21
6. O=C(COc1ccccc1)N1CCCC[C@@H]1c1noc(-c2cnc3[nH]cnc3c2)n1

Out:
1. 123
2. 115
3. 85.8
4. 40.1
5. 58.7
6. 90.2

* * *

Biological target: Carnitine O-palmitoyltransferase 1, liver isoform (Rattus norvegicus, UniProt P32198)
Sequence (P32198 whole entry, canonical isoform): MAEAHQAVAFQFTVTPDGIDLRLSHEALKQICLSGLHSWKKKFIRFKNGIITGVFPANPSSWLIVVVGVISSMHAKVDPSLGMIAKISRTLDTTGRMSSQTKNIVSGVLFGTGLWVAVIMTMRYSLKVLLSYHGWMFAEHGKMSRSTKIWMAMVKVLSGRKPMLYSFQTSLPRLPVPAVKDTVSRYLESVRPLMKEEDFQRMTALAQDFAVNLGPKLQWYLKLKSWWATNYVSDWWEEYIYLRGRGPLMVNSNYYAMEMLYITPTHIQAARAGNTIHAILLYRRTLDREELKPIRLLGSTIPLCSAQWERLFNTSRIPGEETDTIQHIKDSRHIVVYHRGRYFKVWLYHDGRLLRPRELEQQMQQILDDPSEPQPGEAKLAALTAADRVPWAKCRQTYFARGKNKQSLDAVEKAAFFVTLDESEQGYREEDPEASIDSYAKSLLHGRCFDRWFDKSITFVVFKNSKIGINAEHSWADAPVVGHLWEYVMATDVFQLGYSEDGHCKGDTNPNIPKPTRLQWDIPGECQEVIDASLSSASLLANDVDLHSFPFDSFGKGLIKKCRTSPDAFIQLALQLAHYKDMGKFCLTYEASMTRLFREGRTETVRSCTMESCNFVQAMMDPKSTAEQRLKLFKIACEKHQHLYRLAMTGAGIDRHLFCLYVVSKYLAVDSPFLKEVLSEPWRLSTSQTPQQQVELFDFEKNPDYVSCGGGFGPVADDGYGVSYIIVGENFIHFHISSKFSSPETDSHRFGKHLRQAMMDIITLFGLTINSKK
Experiment: SUPPLEMENTARY: Inhibition of Carnitine palmitoyltransferase 1, liver isoform
Would you kindly list pIC50 for each of these molecules?
One number for each entry, as −log10 of the molar value.

Please review the following examples before continuing.
{"MOLECULE": "O=C(COc1ccccc1)N1CCCCC1c1cc(=O)n(-c2ccc(F)cc2)[nH]1 (configuration not stated)", "MEASURE_NAME": "pIC50", "READING": 5.80}
{"MOLECULE": "COc1ccc(Cl)cc1S(=O)(=O)N1CCNc2ccc(C(=O)Nc3ccc(C(=O)O)cc3)cc21", "MEASURE_NAME": "pIC50", "READING": 6.72}
{"MOLECULE": "COc1ccc(Cl)cc1S(=O)(=O)N1CCOc2c(Cl)cc(C(=O)Nc3nc(CC(=O)O)cs3)cc21", "MEASURE_NAME": "pIC50", "READING": 7.27}

Working through the 6 molecules below one at a time, give pIC50 for each.
1. O=C(O)c1ccc(-c2csc([C@H]3CCCCN3C(=O)COc3ccccc3)n2)cc1
2. COc1ccc(Cl)cc1CN1C(=O)OCc2ccc(C(=O)Nc3nc(CC(=O)O)cs3)cc21
3. COC(=O)c1cccc(-c2nc([C@H]3CCCCN3C(=O)COc3ccccc3)sc2C)c1
4. O=C1CNc2ccc(-c3nc([C@H]4CCCCN4C(=O)COc4ccccc4)no3)cc2N1
5. CC1(C)NC(=O)N(c2ccc(Cl)c(-c3nc([C@H]4CCCCN4C(=O)COc4ccccc4)no3)c2)C1=O
6. Nc1ccc(-c2n[nH]c([C@H]3CCCCN3C(=O)COc3ccccc3)n2)cn1

Out:
[6.30, 6.69, 6.20, 6.34, 6.61, 6.06]

* * *

Test: SUPPLEMENTARY: PAMPA permeability assay
Type: physicochemical
Conditions: read-out: Permeability
Would you kindly list Papp for each of these molecules?

Please review the following examples before continuing.
{"CHEMICAL_STRUCTURE": "O=C(COc1ccccc1)N1CCCC[C@@H]1c1nc(-c2ccc3[nH]cnc3c2)no1", "MEASURE_NAME": "Papp", "READING": "2.8 ×10⁻⁶ cm/s"}
{"CHEMICAL_STRUCTURE": "COc1ccc(Cl)cc1S(=O)(=O)Nc1cccc(C#Cc2ccc(C(=O)O)cc2)c1", "MEASURE_NAME": "Papp", "READING": "0.75 ×10⁻⁶ cm/s"}
{"CHEMICAL_STRUCTURE": "CCCN(c1cc(C(=O)Nc2nc(CC(=O)O)cs2)cc2c1OCO2)S(=O)(=O)c1cc(Cl)ccc1OC", "MEASURE_NAME": "Papp", "READING": "3.58 ×10⁻⁶ cm/s"}

Working through the 2 molecules below one at a time, give Papp for each.
1. COc1ccc(Cl)cc1S(=O)(=O)N1CCc2c(C)cc(C(=O)Nc3ccc(C(=O)O)cc3)cc21
2. Cn1ccc(-c2nc([C@H]3CCCCN3C(=O)COc3ccccc3)no2)n1

Out:
2.01 ×10⁻⁶ cm/s
9.41 ×10⁻⁶ cm/s
